Test system: MARK4
Design: species or system human, MV4-11 + K-562 + COLO205 + SK-N-BE2 + OVCAR-8
experimentalConditions: read-out: apparent Kd; compound concentrations:100 nM and 1000 nM (sheet 'Samples'); n = 1
Below, each of the compounds is paired with its reported potency estimated from few doses value.
Quick reminder: number only, in nM, skip the unit.

[
  {
    "compound": "CCn1c(-c2nonc2N)nc2c(C#CC(C)(C)O)nc(O[C@@H](CN)c3ccccc3)cc21.O=C(O)C(F)(F)F [GSK1007102B]",
    "unitsLabel": "nM",
    "recordedNumber": 768
  },
  {
    "compound": "Nc1nccc(-c2ccc3c(N)n[nH]c3c2)n1 [GSK1034945A]",
    "unitsLabel": "nM",
    "recordedNumber": 1790
  }
]

Could you now look at the following compound, please?
Tell me the measured potency estimated from few doses of O=C(O)C(F)(F)F.O=c1[nH]ccc2nc(N[C@@H]3CCNC3)nc(Nc3cc(Cl)cc(Cl)c3)c12 [GSK2188764A] , please.
122
